# System: Human red blood cells (hRBCs)
# ASSAY OVERVIEW: Hemolysis assay using whole human blood
# Assay type: cell-based
# EXPERIMENTAL PARAMETERS: 25 μM; hRBCs, 15 min at 37° C.; relative to 1.0% triton X-100
Peptide text beside a SMILES is read from it.
A collection of molecules and their measured Hemolytic Activity (% Hemolysis)
State just the number; it will be interpreted in %.

Please look up its Hemolytic Activity (% Hemolysis): CC(C)C[C@@H]1NC(=O)[C@H](CCCN)NC(=O)[C@H](C(C)C)NC(=O)[C@@H]2CCCN2C(=O)[C@@H](Cc2ccccc2)NC(=O)[C@H](CC(C)C)NC(=O)[C@H](CCCN)N(N)C(=O)[C@H](C(C)C)NC(=O)[C@@H]2CCCN2C(=O)[C@@H](Cc2ccccc2)NC1=O [Compound 3] (HELM PEPTIDE1{L.[dF].P.V.[Orn].L.[dF].P.V.[NCCC[C@@H](C(=O)[*:2])N(N)[*:1]]}$PEPTIDE1,PEPTIDE1,1:R1-10:R2$$$V2.0)
1.49

Proceed to the following item.
Please look up its Hemolytic Activity (% Hemolysis): CC(C)C[C@@H]1NC(=O)[C@H](CCCN)N(N)C(=O)[C@H](C(C)C)NC(=O)[C@@H]2CCCN2C(=O)[C@@H](Cc2ccccc2)N(N)C(=O)[C@H](CC(C)C)NC(=O)[C@H](CCCN)NC(=O)[C@H](C(C)C)NC(=O)[C@@H]2CCCN2C(=O)[C@@H](Cc2ccccc2)NC1=O [Compound 4] (HELM PEPTIDE1{L.[dF].P.V.[Orn].L.[NN([C@H](Cc1ccccc1)C(=O)[*:2])[*:1]].P.V.[NCCC[C@@H](C(=O)[*:2])N(N)[*:1]]}$PEPTIDE1,PEPTIDE1,1:R1-10:R2$$$V2.0)
1.98
